The molecules listed here are annotated with their IC50.
Tested on: MCF7
MEASUREMENT_PROTOCOL: Anticancer activity against human MCF7 cells incubated for 48 hrs by MTT assay
Format: functional, cell-based
CONDITIONS_USED: MCF7, 48 h
Write down the numeric answer in µM and omit the unit.

CCOC(=O)[C@H]1[C@@H](NO)[C@@H]2c3ccccc3OC(C)(C)[C@H]2[C@H](O)[C@]12C(=O)Nc1ccc(Cl)cc12: 1.7

Now turn to the next molecule.
Field IC50 (system: MCF7) for entry CCOC(=O)[C@H]1[C@@H](NO)[C@@H]2c3ccccc3OC(C)(C)[C@H]2[C@H](O)[C@]12C(=O)Nc1ccc(F)cc12 = 2.5

###

System: UO-31
MEASUREMENT_PROTOCOL: Anticancer activity against human UO-31 cells assessed as reduction in cell proliferation
Type: functional, cell-based
REPORTED_ENDPOINT: pIC50
Please report pIC50 as the negative decimal logarithm of the molar concentration, giving only the number.

Please fill in: pIC50 reported for Cc1ccc(/C=C2\CN(C)C[C@]3(C2=O)[C@H](c2ccc(C)cc2)CN(C)[C@]32C(=O)N(CN3CCOCC3)c3ccccc32)cc1 = 5.75

###

In this section we review reported IC50 values for a set of compounds.
Tested on: MCF7
MEASUREMENT_PROTOCOL: Antiproliferative activity against human MCF7 cells incubated for 72 hrs by MTT assay
Type: functional, cell-based
CONDITIONS_USED: MCF7, 72 h
Give the quantity in nM, number only.

CON1c2ccccc2[C@@]2(CN=C(Nc3cc(C(F)(F)F)cc(C(F)(F)F)c3)S2)[C@@H]1Nc1cc(C(F)(F)F)cc(C(F)(F)F)c1: 2000

Moving on to the next compound.
Quick note, IC50 for CON1c2ccccc2[C@@]2(CN=C(Nc3cc(C(F)(F)F)cc(C(F)(F)F)c3)S2)[C@H]1Nc1cc(C(F)(F)F)cc(C(F)(F)F)c1 landed at 2000

###

Tested on: A549
MEASUREMENT_PROTOCOL: Anticancer activity against human A549 cells incubated for 48 hrs by MTT assay
Type: functional, cell-based
CONDITIONS_USED: A549, 48 h
REPORTED_ENDPOINT: pIC50
// pIC50 here means minus log10 of the molar concentration (mol/L)

CCOC(=O)[C@H]1[C@@H](NO)[C@@H]2c3ccccc3OC(C)(C)[C@H]2[C@H](O)[C@]12C(=O)Nc1ccc(F)cc12: 5.32

Now consider the entry below.
pIC50 reported for this molecule CCOC(=O)[C@H]1[C@@H](NO)[C@@H]2c3ccccc3OC(C)(C)[C@H]2[C@H](O)[C@]12C(=O)Nc1ccc(Cl)cc12 : 5.23

###

Known pIC50 of a selection of compounds
Test system: PC-3
MEASUREMENT_PROTOCOL: Anticancer activity against human PC-3 cells assessed as reduction of cell growth
Type: functional, cell-based
// pIC50 here means minus log10 of the molar concentration (mol/L)

CC1(C)CC(=O)C2C(C1)N(c1ccccn1)C(=O)C21c2ccccc2NC2C(=O)CC(C)(C)CC21 (stereo not drawn): 4.14

Consider CC1(C)CC(=O)C2C(C1)N(c1ccccc1F)C(=O)C21c2ccccc2NC2C(=O)CC(C)(C)CC21 (stereo not drawn) . Its measured pIC50 is 4.07

The value of pIC50 measured for the compound COc1cccc(N2C(=O)C3(c4ccccc4NC4C(=O)CC(C)(C)CC43)C3C(=O)CC(C)(C)CC32)c1 (stereo not drawn) turned out to be 4.06

###

Test system: MDA-MB-231
MEASUREMENT_PROTOCOL: Antiproliferative activity against human MDA-MB-231 cells assessed as inhibition of cell viability by MTT assay
Assay type: functional, cell-based
REPORTED_ENDPOINT: pIC50
Formally, pIC50 is defined as -log10 of the concentration c, with c in mol/L.

Clc1cccc(Cl)c1C1=NO[C@@]2(CCCCO2)[C@H]1Br: 4.37

# ---- query molecule ----
So, Clc1ccc(C2=NO[C@@]3(CCCCO3)[C@H]2Br)cc1 ? Its pIC50 was 4.27

###

Items are presented alongside their recorded IC50.
Tested on: HepG2
MEASUREMENT_PROTOCOL: Antiproliferative activity against human HepG2 cells measured after 48 hrs by MTT assay
Type: functional, cell-based
CONDITIONS_USED: HepG2, 48 h
The reply should contain only the number, in µM.

CC(C)CCC[C@@H](C)[C@@H]1CCC2C3C[C@@]4(N=C5C=CC=CN5/C4=N\c4ccccc4)C4CCCC[C@]4(C)C3CC[C@@]21C (some centres undefined): 4.24

IC50 in this record for CC(C)CCC[C@@H](C)[C@@H]1CCC2C3C[C@@]4(N=C5C=CC=CN5/C4=N\c4ccccc4)C4C[C@@H](Cl)CC[C@]4(C)C3CC[C@@]21C (some centres undefined) : 5.32

So for CC(C)CCC[C@@H](C)[C@@H]1CCC2C3C[C@@]4(N=C5C=CC(Cl)=CN5/C4=N\Cc4ccccc4)C4C[C@@H](Cl)CC[C@]4(C)C3CC[C@@]21C (some centres undefined) , the logged IC50 turned out to be 5.37

Reported IC50 of CC(=O)O[C@H]1CC[C@]2(C)C3CC[C@@]4(C)C(CC[C@H]4[C@H](C)CCCC(C)C)C3C[C@@]3(N=C4C=CC=CN4/C3=N\c3ccccc3)C2C1 (some centres undefined) : 2.43

###

System: HCT-116
MEASUREMENT_PROTOCOL: Anticancer activity against human HCT-116 cells assessed as inhibition of cell growth
Type: functional, cell-based
REPORTED_ENDPOINT: pIC50
Friendly reminder that pIC50 comes from taking -log10 of the concentration in mol/L.

CC(=O)OC[C@H]1OC(Sc2nnc(/N=C3\CSC4(CCCCC4)N3c3ccc(F)cc3)s2)[C@H](OC(C)=O)[C@@H](OC(C)=O)[C@@H]1OC(C)=O (stereo not given in full): 7.04
Cc1ccc(-c2nc(SC3O[C@H](CO)[C@@H](O)[C@H](O)[C@H]3O)nc3c2SC2(CCCCC2)N3c2ccc(F)cc2)o1 (stereo not given in full): 7.02
CC(=O)OC[C@H]1OC(Sc2nc(-c3ccc(C)o3)c3c(n2)N(c2ccc(F)cc2)C2(CCCCC2)S3)[C@H](OC(C)=O)[C@@H](OC(C)=O)[C@@H]1OC(C)=O (stereo not given in full): 6.92
CC1CCC2(CC1)SC/C(=N\c1nnc(SC3OC[C@@H](O)[C@H](O)[C@H]3O)s1)N2c1ccc(F)cc1 (stereo not given in full): 6.97

Read the next record carefully.
What the record says about CC1CCC2(CC1)SC/C(=N\c1nnc(SC3O[C@H](CO)[C@@H](O)[C@H](O)[C@H]3O)s1)N2c1ccc(F)cc1 (stereo not given in full) : pIC50 is 6.97

###

System: HL-60
MEASUREMENT_PROTOCOL: Induction of mitochondrial membrane potential loss in human HL-60 cells measured after 72 hrs by TMRM dye based flow cytometric analysis
Assay type: functional, cell-based
CONDITIONS_USED: HL-60, 72 h
REPORTED_ENDPOINT: IC50

Form field IC50, entry O=C1CS/C(=C\C2c3ccccc3Nc3ccccc32)N1N(c1ccccc1)c1ccccc1 : 25.9 µM

###

System: MCF7
MEASUREMENT_PROTOCOL: Anticancer activity against human MCF7 cells assessed as inhibition of cell growth by MTT assay
Format: functional, cell-based
REPORTED_ENDPOINT: pIC50
Here pIC50 is given on a logarithmic scale as minus log10 of the concentration in mol/L.

Consider the worked cases shown below.
O=C1C2=C(c3ccccc31)N(c1ccc(N3CCOCC3)c(F)c1)C1=C(C(=O)c3ccccc31)C21C(=O)Nc2ccccc21: 5.19
O=C1Nc2ccc(Br)cc2C12c1c(c3ccccc3oc1=O)N(c1ccc(N3CCOCC3)c(F)c1)c1c2c(=O)oc2ccccc12: 5.02

# input for lookup
Summary line: O=C1Nc2ccc(Br)cc2C12c1c([nH]c(=O)[nH]c1=O)N(c1ccc(N3CCOCC3)c(F)c1)c1[nH]c(=O)[nH]c(=O)c12 , MCF7, reported pIC50 = 4.64

###

MEASUREMENT_PROTOCOL: Cytotoxicity against human VA13 cells incubated for 72 hrs by MTT assay
Assay type: toxicity, cell-based
CONDITIONS_USED: VA13 (WI-38 VA13) cells
REPORTED_ENDPOINT: IC50 at 72 h (µM)
Record the value in µM, omitting the unit from your answer.

CN1C[C@H](c2ccc(Cl)cc2)[C@]2(NC(=O)NC2=O)C12C(=O)Nc1ccc(Br)cc12 (some centres not stated): 11.9

Then there is this molecule:
Looking up CN1C[C@H](c2ccc(F)cc2)[C@]2(NC(=O)NC2=O)C12C(=O)Nc1ccccc12 (some centres not stated) , I see its IC50 at 72 h listed as 20.8
